target: CDK2/Cyclin E1 (Homo sapiens (Human), UniProt P24941); experiment: Caliper LabChip EZ Reader mobility shift assay; format: biochemical; details: 2.5 nM CDK2/Cyclin E1 (14-475), 100 μM ATP, 1.5 μM fluorescent peptide; read-out: Caliper Assay (CDK2/CCNE1): IC50
pIC50: −log10 of the molar value.
observable: pIC50

The following compounds have reported results that may help.
compound=C[C@@H](OCC12CCC(CC1)OC2)[C@H](NC(=O)[C@@H]1CN(c2ncnc3ncsc23)CC12CN(C(=O)[C@H]1CC1(C)C)C2)C(=O)N1CCC(OC(F)(F)F)CC1 result="7.00 to 8.00"
compound=COC[C@H]1CCCN(C(=O)[C@@H](NC(=O)[C@@H]2CN(c3cc(C(F)(F)F)cc4ncsc34)CC23CN(C(=O)[C@H]2CC2(C)C)C3)[C@@H](C)OCC23CCC(CC2)OC3)C1 result="< 5.00"
compound=COC[C@H]1CCCN(C(=O)[C@@H](NC(=O)[C@@H]2CN(c3n[nH]c4ncccc34)CC23CN(C(=O)[C@H]2CC2(C)C)C3)[C@@H](C)OCC23CCC(CC2)OC3)C1 result="< 5.00"
compound="CC(OCC12CCC(CC1)OC2)[C@H](NC(=O)[C@@H]1CN(c2ncnc3ncsc23)CC12CN(C(=O)[C@H]1CC1(C)C)C2)C(=O)N1CC2(CCOCC2)C1 (stereo partly drawn)" result="6.00 to 7.00"
compound=C[C@@H](OCC1CCCCC1)[C@H](NC(=O)[C@@H]1CN(c2cccc3[nH]ncc23)CC12CN(C(=O)[C@H]1CC1(C)C)C2)C(=O)N1CCCCC1 result="5.00 to 6.00"

Query: Report pIC50 for `C[C@@H](OCC12CCC(CC1)OC2)[C@H](NC(=O)[C@@H]1CN(C(=O)c2cncs2)CC12CN(c1ncco1)C2)C(C)(C)O`
Reply: < 5.00

Query: Report pIC50 for C[C@@H](OCC1CCCCC1)[C@H](NC(=O)[C@@H]1CN(c2nccc3cn[nH]c23)CC12CN(C(=O)[C@H]1CC1(C)C)C2)C(=O)N1CCCCC1 [Compound I-12, 2,2,2-trifluoroacetate]
Reply: < 5.00

Query: Report pIC50 for CC(C)(O)C(NC(=O)[C@@H]1CN(C(=O)c2cncs2)CC12CN(c1ncco1)C2)c1cccc(C2CCOCC2)n1 (stereo partly drawn)
Reply: < 5.00

Query: Report pIC50 for `C[C@@H](OCC1CCCCC1)[C@H](NC(=O)[C@@H]1CN(c2cccc3ncsc23)CC12CN(C(=O)[C@H]1CC1(C)C)C2)C(=O)N1CCCCC1`
Reply: 6.00 to 7.00

Query: Report pIC50 for C[C@@H](OCC12CCC(CC1)OC2)C(NC(=O)[C@@H]1CN(c2ncnc3ncsc23)CC12CN(C(=O)[C@H]1CC1(C)C)C2)C(=O)N1CCC(C(F)(F)F)CC1 (stereo partly drawn)
Reply: 7.00 to 8.00

Query: Report pIC50 for `C[C@@H](OCC12CCC(CC1)OC2)[C@H](NC(=O)[C@@H]1CN(c2nccc3ncsc23)CC12CN(C(=O)[C@H]1CC1(C)C)C2)C(=O)N1CCC2(CC1)COC2`
Reply: 5.00 to 6.00

Query: Report pIC50 for `C[C@@H](OCC1CCC(F)(F)CC1)[C@H](NC(=O)[C@@H]1CN(C(=O)c2cncs2)CC12CN(c1cc[nH]n1)C2)C(C)(C)O`
Reply: < 5.00

Query: Report pIC50 for `C[C@@H](OCC12CCC(CC1)OC2)[C@H](NC(=O)[C@@H]1CN(C(=O)c2cncs2)CC12CN(c1cc[nH]n1)C2)C(C)(C)O`
Reply: < 5.00

Query: Report pIC50 for C[C@@H](OCC1(CO)CC=CCC1)[C@H](NC(=O)[C@@H]1CN(c2ncnc3ncsc23)CC12CN(C(=O)[C@H]1CC1(C)C)C2)C(=O)N1CCC(C(F)(F)F)CC1 (stereo partly drawn)
Reply: 7.00 to 8.00
